Hello, the source for this data is patent US20180305332A1, in case you need it.

assayed_system: GST tagged LXRbeta LBD (ligand binding domain) (Homo sapiens)
Construct: purchased Invitrogen pv4658.pps
Sequence (P55055 222-460 limits assumed): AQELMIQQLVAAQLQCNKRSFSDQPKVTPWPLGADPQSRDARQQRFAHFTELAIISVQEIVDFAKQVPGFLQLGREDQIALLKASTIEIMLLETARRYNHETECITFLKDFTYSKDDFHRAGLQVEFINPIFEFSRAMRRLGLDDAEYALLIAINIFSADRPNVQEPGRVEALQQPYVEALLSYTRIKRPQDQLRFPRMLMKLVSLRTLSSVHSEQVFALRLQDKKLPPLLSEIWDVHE
run_description: LanthaScreen TR-FRET Liver X Receptor Coactivator Assay, LXR beta-LBD
Type: biochemical
condition_notes: activity at max dose (efficacy), relative to reference T0901317; read-out: LXR beta act @ max dose (%)
property_label: Emax (%)
Output spec: scalar in %, unitless text.

Answered examples (2):
- compound: "CN(Cc1ccon1)C(=O)c1ccc(N2CCC(C3CCN(C(=O)c4c(F)cccc4F)CC3)CC2)cc1Cl [Example E-16]"
  Emax / %: 92
- compound: "O=C(c1ccc(N2CCC(C3CCN(C(=O)[C@](O)(c4ccccc4)C(F)(F)F)CC3)CC2)cc1Cl)N1CC(N2CCCC2)C1 [Example E-42]"
  Emax / %: 39

So for CC1CCC(C)N1C(=O)c1ccc(N2CCC(C3CCN(C(=O)[C@](O)(c4ccccc4)C(F)(F)F)CC3)CC2)cc1Cl (stereo partly drawn) [Example E-27] , the logged Emax turned out to be 58

---

Listing of recorded Emax by entry.
assayed_system: GST tagged LXRbeta LBD (ligand binding domain) (Homo sapiens, UniProt P55055)
Construct: purchased Invitrogen pv4658.pps
Sequence (P55055 222-460 limits assumed): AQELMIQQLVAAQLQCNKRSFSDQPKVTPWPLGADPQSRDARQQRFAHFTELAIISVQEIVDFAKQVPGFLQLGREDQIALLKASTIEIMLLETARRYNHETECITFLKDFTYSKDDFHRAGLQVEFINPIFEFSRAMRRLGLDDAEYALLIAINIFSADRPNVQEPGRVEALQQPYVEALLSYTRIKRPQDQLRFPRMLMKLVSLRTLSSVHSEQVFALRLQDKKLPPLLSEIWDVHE
run_description: LanthaScreen TR-FRET Liver X Receptor Coactivator Assay, LXR beta-LBD
Format: biochemical
condition_notes: activity at max dose (efficacy), relative to reference T0901317; read-out: LXR beta act @ max dose (%)
Output spec: scalar in %, unitless text.

So for CN(C)C(=O)c1ccc(N2CCC(C3CCN(C(=O)C4(c5cc(F)ccc5F)CCC4)CC3)CC2)cc1Cl , the logged Emax turned out to be 87

So for COc1cccc([C@@](O)(C(=O)N2CCC(C3CCN(c4ccc(C(=O)N(C)C)c(Cl)c4)CC3)CC2)C(F)(F)F)c1 (single isomer, unassigned) , the logged Emax turned out to be 100

So for O=C(c1ccc(N2CCC(C3CCN(C(=O)[C@](O)(c4ccccc4)C(F)(F)F)CC3)CC2)cc1Cl)N1CCCC1C(F)(F)F (stereo partly drawn) , the logged Emax turned out to be 62

So for CC(C)C(O)(C(=O)N1CCC(C2CCN(c3ccc(C(N)=O)c(Cl)c3)CC2)CC1)C(F)(F)F (stereo not drawn) , the logged Emax turned out to be 94

So for O=C(c1ccc(N2CCC(C3CCN(C(=O)[C@](O)(c4ccccc4)C(F)(F)F)CC3)CC2)cc1Cl)N1CCCC1C1CC1 (stereo partly drawn) , the logged Emax turned out to be 65

So for CN(CCO)C(=O)c1ccc(N2CCC(C3CCN(C(=O)[C@](O)(c4ccccc4)C(F)(F)F)CC3)CC2)cc1Cl , the logged Emax turned out to be 98

---

assayed_system: GST tagged LXRbeta LBD (ligand binding domain) (Homo sapiens)
Construct: purchased Invitrogen pv4658.pps
run_description: LanthaScreen TR-FRET Liver X Receptor Coactivator Assay, LXR beta-LBD
Format: biochemical
condition_notes: activity at max dose (efficacy), relative to reference T0901317; read-out: LXR beta act @ max dose (%)
Listing of recorded Emax by entry.
Output spec: scalar in %, unitless text.

- compound: "CC(C)C(O)(C(=O)N1CCC(C2CCN(c3cc(F)c(C(=O)N(C)C)c(F)c3)CC2)CC1)C(F)(F)F (stereo not shown)"
  property_label: "Emax"
  reported_measurement: 101
- compound: "CN(C)C(=O)c1ccc(N2CCC(C3CCN(C(=O)C(C)(C)c4ccccc4Cl)CC3)CC2)cc1Cl"
  property_label: "Emax"
  reported_measurement: 115
- compound: "CN(C)C(=O)c1ccc(N2CCC(C3CCN(C(=O)C4(c5cccc(F)c5)CCC4)CC3)CC2)cc1Cl"
  property_label: "Emax"
  reported_measurement: 100

Now consider a different compound.
So for O=C(c1ccc(N2CCC(C3CCN(C(=O)[C@](O)(c4ccccc4)C(F)(F)F)CC3)CC2)cc1Cl)N1CC(n2cccn2)C1 , the logged Emax turned out to be 52

---

assayed_system: GST tagged LXRbeta LBD (ligand binding domain) (Homo sapiens, UniProt P55055)
Sequence (P55055 222-460 limits assumed): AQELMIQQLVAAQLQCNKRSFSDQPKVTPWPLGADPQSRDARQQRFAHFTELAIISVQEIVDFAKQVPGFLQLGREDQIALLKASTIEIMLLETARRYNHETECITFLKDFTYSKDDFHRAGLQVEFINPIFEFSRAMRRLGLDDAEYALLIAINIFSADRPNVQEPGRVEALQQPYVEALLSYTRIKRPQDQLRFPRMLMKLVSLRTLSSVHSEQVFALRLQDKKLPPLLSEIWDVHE
run_description: LanthaScreen TR-FRET Liver X Receptor Coactivator Assay, LXR beta-LBD
condition_notes: Inflection Point (potency), co-activator recruitment, relative to reference T0901317; read-out: LXR beta IP
Source text: […]
property_label: pEC50
Note on pEC50: it is the negative log10 of concentration, concentration in mol/L.

Answered examples (2):
- molecule: "C=C(C)C(O)(C(=O)N1CCC(C2CCN(c3ccc(C(=O)N(C)C)c(Cl)c3)CC2)CC1)C(F)(F)F (stereo not drawn) [Example A-31]"
  pEC50: 7.21
- molecule: "CN(C)C(=O)c1ccc(N2CCC(C3CCN(C(=O)C(O)(C(C)(C)C)C(F)(F)F)CC3)CC2)cc1Cl (single isomer, unassigned) [Example A-7]"
  pEC50: 7.21

So for CN(C)C(=O)c1ccc(N2CCC(C3CCN(C(=O)[C@](O)(c4ccccc4)C(F)(F)C(F)(F)F)CC3)CC2)nc1Cl (single isomer, unassigned) [Example B-16] , the logged pEC50 turned out to be 7.05

---

assayed_system: GST tagged LXRbeta LBD (ligand binding domain) (Homo sapiens)
Construct: purchased Invitrogen pv4658.pps
Sequence (P55055 222-460 limits assumed): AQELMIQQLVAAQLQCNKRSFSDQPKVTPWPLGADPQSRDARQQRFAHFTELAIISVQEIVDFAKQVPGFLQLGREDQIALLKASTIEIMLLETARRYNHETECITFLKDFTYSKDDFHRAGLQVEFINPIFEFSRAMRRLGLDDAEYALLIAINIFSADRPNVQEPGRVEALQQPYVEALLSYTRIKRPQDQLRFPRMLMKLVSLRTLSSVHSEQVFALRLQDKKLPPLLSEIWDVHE
run_description: LanthaScreen TR-FRET Liver X Receptor Coactivator Assay, LXR beta-LBD
Assay type: biochemical
condition_notes: activity at max dose (efficacy), relative to reference T0901317; read-out: LXR beta act @ max dose (%)
Description: […]
property_label: Emax (%)
Output spec: scalar in %, unitless text.

Answered examples (2):
- molecule: "CN(C)C(=O)c1ccc(N2CCC(C3CCN(C(=O)C(O)(C4CC4)C(F)(F)F)CC3)CC2)cc1Cl (single isomer, unassigned)"
  unit_info: "%"
  Emax: 95
- molecule: "CC(C)C(O)(C(=O)N1CCC(C2CCN(c3ccc(C(=O)N(C)C)c(Cl)c3)CC2)CC1)C(F)(F)C(F)(F)F (centres unmarked)"
  unit_info: "%"
  Emax: 103

Now consider a different molecule.
So for O=C1CCN(C(=O)c2ccc(N3CCC(C4CCN(C(=O)[C@](O)(c5ccccc5)C(F)(F)F)CC4)CC3)cc2Cl)C1 , the logged Emax turned out to be 79

---

assayed_system: GST tagged LXRbeta LBD (ligand binding domain) (Homo sapiens)
Construct: purchased Invitrogen pv4658.pps
run_description: LanthaScreen TR-FRET Liver X Receptor Coactivator Assay, LXR beta-LBD
Format: biochemical
condition_notes: activity at max dose (efficacy), relative to reference T0901317; read-out: LXR beta act @ max dose (%)
Listing of recorded Emax by entry.

Answered examples (5):
- compound: "Cc1ccc(C(C)(C)C(=O)N2CCC(C3CCN(c4ccc(C(=O)N(C)C)c(Cl)c4)CC3)CC2)cc1"
  Emax: "99%"
- compound: "CN(C)C(=O)c1ccc(N2CCC(C3CCN(C(=O)[C@](O)(c4ccccc4)C(F)(F)C(F)(F)F)CC3)CC2)cc1Cl (single isomer, unassigned)"
  Emax: "146%"
- compound: "CC(C)C(O)(C(=O)N1CCC(C2CCN(c3ccc(C(=O)N4CCOCC4)c(Cl)c3)CC2)CC1)C(F)(F)F (centres unmarked)"
  Emax: "65%"
- compound: "CN(Cc1nccs1)C(=O)c1ccc(N2CCC(C3CCN(C(=O)[C@](O)(c4ccccc4)C(F)(F)F)CC3)CC2)cc1Cl"
  Emax: "77%"
- compound: "CN(C(=O)c1ccc(N2CCC(C3CCN(C(=O)[C@](O)(c4ccccc4)C(F)(F)F)CC3)CC2)cc1Cl)C1CCOC1 (some centres unmarked)"
  Emax: "98%"

So for CC(C)(C(=O)N1CCC(C2CCN(c3cccc(S(C)(=O)=O)c3)CC2)CC1)c1ccccc1 , the logged Emax turned out to be 134%

So for CN(C)C(=O)c1ccc(N2CCC(C3CCN(C(=O)C(C)(C)c4ccc(Cl)cc4Cl)CC3)CC2)cc1Cl , the logged Emax turned out to be 109%

So for CN(C)C(=O)c1ccc(N2CCC(C3CCN(C(=O)C(c4ccccc4)C(F)(F)F)CC3)CC2)cc1Cl (centres unmarked) , the logged Emax turned out to be 92%

So for CN(C)C(=O)c1ccc(N2CCC(C3CCN(S(=O)(=O)c4ccccc4C(F)(F)F)CC3)CC2)cc1Cl , the logged Emax turned out to be 138%

So for CN(C)C(=O)c1ccc(N2CCC(C3CCN(C(=O)C(O)(c4ccccc4)C(F)(F)F)CC3)CC2)nc1Cl (stereo in doubt) [Example B-9] , the logged Emax turned out to be 104%

So for CN(C)C(=O)c1ccc(N2CCC(C3CCN(C(=O)C4(c5ccccc5)CCC4)CC3)CC2)cc1Cl , the logged Emax turned out to be 114%

So for CN(C)C(=O)c1ccc(N2CCC(C3CCN(C(=O)C(O)(c4cccc(F)c4)C(F)(F)F)CC3)CC2)cc1Cl (centres unmarked) , the logged Emax turned out to be 116%

So for CC(C)C(O)(C(=O)N1CCC(C2CCN(c3ccc(C(=O)N4CCOC[C@H]4C)c(Cl)c3)CC2)CC1)C(F)(F)F (some centres unmarked) , the logged Emax turned out to be 72%

So for CN(C)C(=O)c1ccc(N2CCC(C3CCN(C(=O)C(O)(c4cccc(Cl)c4)C(F)(F)F)CC3)CC2)cc1Cl (centres unmarked) , the logged Emax turned out to be 99%
